molecular target: Sulfonylurea receptor 1, Kir6.2 (Homo sapiens, UniProt Q09428+Q14654); test: Inhibition of [3H]glibenclamide binding to HEK293 cells co-expressing human Sulfonylurea receptor SUR1 and Inward rectifier K+ channel Kir6.2 without ATP; assay type: cell-based
Sequence (Q14654 whole entry): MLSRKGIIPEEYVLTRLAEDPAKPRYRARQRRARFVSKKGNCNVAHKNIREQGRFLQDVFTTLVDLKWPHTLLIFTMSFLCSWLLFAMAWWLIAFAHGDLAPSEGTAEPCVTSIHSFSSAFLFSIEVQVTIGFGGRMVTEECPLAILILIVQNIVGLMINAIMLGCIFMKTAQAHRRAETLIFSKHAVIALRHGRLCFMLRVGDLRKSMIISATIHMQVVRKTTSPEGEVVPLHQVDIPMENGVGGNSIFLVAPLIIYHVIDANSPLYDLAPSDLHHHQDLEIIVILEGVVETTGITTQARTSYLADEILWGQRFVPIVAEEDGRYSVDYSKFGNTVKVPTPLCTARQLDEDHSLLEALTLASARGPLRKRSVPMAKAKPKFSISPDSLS
Sequence (Q09428 whole entry): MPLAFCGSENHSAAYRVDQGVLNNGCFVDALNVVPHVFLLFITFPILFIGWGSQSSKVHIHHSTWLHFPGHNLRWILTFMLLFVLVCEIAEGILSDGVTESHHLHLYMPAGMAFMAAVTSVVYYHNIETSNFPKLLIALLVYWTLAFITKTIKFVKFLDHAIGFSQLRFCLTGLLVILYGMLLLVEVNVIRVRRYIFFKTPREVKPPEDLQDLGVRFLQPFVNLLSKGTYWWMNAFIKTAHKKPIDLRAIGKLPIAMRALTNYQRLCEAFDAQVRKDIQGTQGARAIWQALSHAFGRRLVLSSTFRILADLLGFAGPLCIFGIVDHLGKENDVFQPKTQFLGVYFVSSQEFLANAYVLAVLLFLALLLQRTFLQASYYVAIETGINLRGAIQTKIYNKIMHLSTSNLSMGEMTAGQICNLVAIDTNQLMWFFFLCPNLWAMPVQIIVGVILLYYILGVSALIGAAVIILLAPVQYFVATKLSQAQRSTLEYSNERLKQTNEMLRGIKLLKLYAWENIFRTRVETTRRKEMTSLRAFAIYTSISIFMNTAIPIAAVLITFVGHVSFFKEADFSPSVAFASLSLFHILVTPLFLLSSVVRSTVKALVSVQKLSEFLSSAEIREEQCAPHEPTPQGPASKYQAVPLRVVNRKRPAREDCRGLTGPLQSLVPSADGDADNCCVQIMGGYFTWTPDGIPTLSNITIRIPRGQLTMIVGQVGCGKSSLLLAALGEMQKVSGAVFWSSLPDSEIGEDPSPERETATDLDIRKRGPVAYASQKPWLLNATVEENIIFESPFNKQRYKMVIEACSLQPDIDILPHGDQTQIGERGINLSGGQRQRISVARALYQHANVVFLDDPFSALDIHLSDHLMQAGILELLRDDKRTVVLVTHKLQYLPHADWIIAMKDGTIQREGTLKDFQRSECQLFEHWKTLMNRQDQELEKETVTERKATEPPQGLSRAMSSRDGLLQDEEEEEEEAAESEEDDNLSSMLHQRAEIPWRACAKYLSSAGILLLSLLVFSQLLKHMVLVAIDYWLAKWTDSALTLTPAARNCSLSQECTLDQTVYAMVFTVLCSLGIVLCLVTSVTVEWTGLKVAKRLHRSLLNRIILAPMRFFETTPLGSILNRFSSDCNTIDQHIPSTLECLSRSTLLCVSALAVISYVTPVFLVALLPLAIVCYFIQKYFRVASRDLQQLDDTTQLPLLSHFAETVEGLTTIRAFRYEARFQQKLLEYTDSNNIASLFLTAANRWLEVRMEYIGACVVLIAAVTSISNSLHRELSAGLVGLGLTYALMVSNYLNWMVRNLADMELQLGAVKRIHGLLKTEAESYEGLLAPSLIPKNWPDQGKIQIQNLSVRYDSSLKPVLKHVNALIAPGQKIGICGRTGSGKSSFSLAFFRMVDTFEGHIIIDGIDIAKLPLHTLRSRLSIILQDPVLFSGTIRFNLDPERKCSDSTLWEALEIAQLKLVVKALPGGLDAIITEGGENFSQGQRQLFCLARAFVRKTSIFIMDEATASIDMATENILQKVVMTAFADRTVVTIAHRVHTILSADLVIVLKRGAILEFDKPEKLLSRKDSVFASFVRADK
recorded-metric: IC50 (µM)

Example results:
O=S1(=O)NC(NC2CCC2)=Nc2cc(Cl)sc21
943
CC(C)(C)NC1=NS(=O)(=O)c2sc(Cl)cc2N1
1350
CC1(NC2=NS(=O)(=O)c3sc(Cl)cc3N2)CCC1
859
CCC(C)(C)NC1=NS(=O)(=O)c2sc(Cl)cc2N1
899

[1] CCCNC1=NS(=O)(=O)c2sc(Cl)cc2N1
[2] CC(C)NC1=NS(=O)(=O)c2sc(Cl)cc2N1
Query block: Lower IC50: 1 or 2 ? Label of pick, please.
Result block: 2
